test system: SNB-75 CNS; assay: NCI-60 one-dose screen, 48 h (100 = growth as untreated, 0 = no growth, -100 = all killed); details: 10 µM unless noted
The panel holds about 83,000 compounds, 20% with a hit somewhere; the sample as a whole holds those more often.
Assignment: determine reported growth for the given compounds.
Give the value, in units of %, as a plain number.

Query string: Kindly indicate its recorded growth. Item: CC(O)C(N)=O (centres undefined)
Result string: 84.3

Query string: Kindly indicate its recorded growth. Item: `O=C(Nc1ccc(Cl)c(Cl)c1)O/N=C\c1c(Cl)ccc([N+](=O)[O-])c1Cl`
Result string: 16.9

Query string: Kindly indicate its recorded growth. Item: `CCOC(=O)c1cc(-c2ccc(OC)cc2)[nH]c1NNC(=O)CCOC`
Result string: 106

Query string: Kindly indicate its recorded growth. Item: `CCOC(=O)CCCCCCCCC(=O)OCC`
Result string: 102

====

system: SR leukemia; test: NCI-60 one-dose screen, 48 h; conditions: 10 µM unless noted
The panel holds about 83,000 compounds, 20% with a hit somewhere; the sample as a whole holds those more often. Active and inactive are the calls of the source. The calls were made as follows: active = growth percent below 10; inactive = the rest.
API: response.call in 1 = active, 0 = inactive

Query string: GET /call?item= O=C1CSC(c2ccccc2Cl)N1c1nnc(-c2ccncc2)o1 (stereo not given) returns the recorded outcome of this test.
Result string: 0

Query string: GET /call?item= CCCCCCCCCCC1OC(C)CC(C)O1 (stereo not given) returns the recorded outcome of this test.
Result string: 0

Query string: GET /call?item= `Cc1cc2cn3c4ccc(O)cc4[nH]c(=O)c3c2cc1C` returns the recorded outcome of this test.
Result string: 1

Query string: GET /call?item= `CNc1ccc(Nc2ccc(S(=O)(=O)O)cc2)c2c1C(=O)c1ccccc1C2=O` returns the recorded outcome of this test.
Result string: 0

Query string: GET /call?item= `O=C(C(=O)N1CCOCC1)c1ccc(O[C@H]2O[C@H](CO)[C@@H](O)[C@H](O)[C@@H]2O)cc1` returns the recorded outcome of this test.
Result string: 0

Query string: GET /call?item= `COc1cc([C@@H]2c3cc4c(cc3[C@H](O)[C@H]3COC[C@@H]23)OCO4)cc(OC)c1OC` returns the recorded outcome of this test.
Result string: 0

Query string: GET /call?item= COC(=O)C(C)[C@H]1CC[C@@H]2[C@]1(C)CC=C1[C@]23C=C[C@]2(C[C@@H](OC(C)=O)CC[C@]12C)C(C(=O)OC)C3C(=O)OC (stereo not given in full) returns the recorded outcome of this test.
Result string: 0

Query string: GET /call?item= `CC(=O)c1cc(Nc2cc(C)nc(N)n2)cc(C(C)=O)c1` returns the recorded outcome of this test.
Result string: 0

Query string: GET /call?item= `O=C(Nc1ccc(-n2cc(-c3ccncc3)c(-c3ccc(Cl)c(O)c3)n2)cc1)c1ccc(Cl)c(C(F)(F)F)c1` returns the recorded outcome of this test.
Result string: 1

Query string: GET /call?item= `O=C(N/N=C\c1ccc(Cl)cc1)C(=O)N/N=C\c1ccc(Cl)cc1` returns the recorded outcome of this test.
Result string: 0

Query string: GET /call?item= `O=C(Nc1ccccc1)Nc1ccc(Nc2ncnc3sc4c(c23)CCCC4)cc1` returns the recorded outcome of this test.
Result string: 0

Query string: GET /call?item= `Brc1c(-c2ccncc2)nc2n1CCS2` returns the recorded outcome of this test.
Result string: 0

Query string: GET /call?item= `O=C(NCCO)C(F)(F)F` returns the recorded outcome of this test.
Result string: 0

Query string: GET /call?item= `COc1cc(-c2nn(-c3ccc(NC(=O)Nc4ccc(Cl)c(Cl)c4)cc3)cc2-c2ccncc2)ccc1Cl` returns the recorded outcome of this test.
Result string: 1

Query string: GET /call?item= `CC1=C[C@@H]2c3c(c(O)c(O)c4oc5cc(O)cc(O)c5c(=O)c34)[C@@H](c3cc(O)c(O)c4oc5cc(O)cc(O)c5c(=O)c34)[C@@H]2C(C)(C)C1` returns the recorded outcome of this test.
Result string: 1

Query string: GET /call?item= `Oc1ccccc1/C=N/N=C/c1c(O)ccc2ccccc12` returns the recorded outcome of this test.
Result string: 0

Query string: GET /call?item= O=c1c2c(c3ccccc3n1-c1ccccc1)NC(=S)NC2c1ccc(Cl)cc1 (stereo not given) returns the recorded outcome of this test.
Result string: 0

Query string: GET /call?item= `Cc1[nH]n(C(=S)Nc2nc3cc(Cl)c(F)cc3s2)c(=O)c1N=Nc1ccc(F)c(Cl)c1` returns the recorded outcome of this test.
Result string: 1

Query string: GET /call?item= `O=C1N/C(=N\c2nnc(-c3ccc(O)cc3)s2)S/C1=C\c1ccccc1O` returns the recorded outcome of this test.
Result string: 0

Query string: GET /call?item= `Cc1cc2cn3c4ccc(O)cc4nc(N)c3c2cc1C` returns the recorded outcome of this test.
Result string: 1

====

system: SK-MEL-2 melanoma; assay: NCI-60 one-dose screen, 48 h; settings: 10 µM unless noted
The panel holds about 83,000 compounds, 20% with a hit somewhere; the sample as a whole holds those more often. Calls of active or inactive are those of the source. How the source made its calls: active means growth percent below 10; inactive means the rest.
API: response.call in TRUE = active, FALSE = inactive

Query string: GET /call?item= `CCC(C)(C)c1ccc(OCCCCCCN2CCNCC2)cc1` returns the recorded outcome of this test.
Result string: FALSE

Query string: GET /call?item= `c1ccc(C(=NNc2nc3ccccc3o2)c2ccccn2)nc1` returns the recorded outcome of this test.
Result string: FALSE

Query string: GET /call?item= `COC(=O)[C@H](Cc1cn(C)cn1)NC(=O)[C@H](CC(=O)OCc1ccccc1)NC(=O)Nc1cc(C(F)(F)F)cc(C(F)(F)F)c1` returns the recorded outcome of this test.
Result string: TRUE

Query string: GET /call?item= `CC(C)(C)c1ccc([I+]c2ccc(C(C)(C)C)cc2)cc1` returns the recorded outcome of this test.
Result string: TRUE

Query string: GET /call?item= `Oc1ccccc1\C=N/N=C/C=C/c1ccccc1` returns the recorded outcome of this test.
Result string: FALSE

Query string: GET /call?item= `CC(C)(C)c1cc(C[P+](c2ccc(Cl)cc2)(c2ccc(Cl)cc2)c2ccc(Cl)cc2)cc(C(C)(C)C)c1O` returns the recorded outcome of this test.
Result string: FALSE

Query string: GET /call?item= `CCC(C)(C)c1ccc(OCCCCCCN2CCN(c3ccc(C)c(Cl)c3)CC2)cc1` returns the recorded outcome of this test.
Result string: FALSE

Query string: GET /call?item= `C=CCN(C)C` returns the recorded outcome of this test.
Result string: FALSE

Query string: GET /call?item= `COc1ccc(/C=C2\SC(=O)N(Cc3cc(=O)oc4ccc(OC)cc34)C2=O)cc1` returns the recorded outcome of this test.
Result string: FALSE

Query string: GET /call?item= `COc1cccc2c1n([O-])c1cccc(OC)c1[n+]2=O` returns the recorded outcome of this test.
Result string: FALSE

Query string: GET /call?item= CC1CCCCC[N+]12CCCC2 (stereo unspecified) returns the recorded outcome of this test.
Result string: FALSE

====

test system: BT-549 breast; test: NCI-60 one-dose screen, 48 h (100 = growth as untreated, 0 = no growth, -100 = all killed); settings: 10 µM unless noted
About 83,000 compounds went through this panel and 20% of them were active in at least one assay; those are over-represented in the sample as a whole.
endpoint.name: growth (%)
Give the value, in units of %, as a plain number.

Query string: Kindly indicate its recorded growth. Item: `O=C(NCCNCCO)c1cc([N+](=O)[O-])cc([N+](=O)[O-])c1O`
Result string: 121

Query string: Kindly indicate its recorded growth. Item: `CC1(C)N=C(N)N=C(N)N1c1cccc(CCCCOc2ccccc2)c1`
Result string: 35.7

Query string: Kindly indicate its recorded growth. Item: `Nc1cc(N)c2nc(-c3ccccc3)c(NCCc3ccc(Cl)c(Cl)c3)nc2c1`
Result string: -70.4

Query string: Kindly indicate its recorded growth. Item: `COc1cc(OC)c(/C=C/c2ccc3ccccc3[n+]2C)c(OC)c1`
Result string: -0.0814

Query string: Kindly indicate its recorded growth. Item: O=C1Nc2ccccc2/C1=C/c1cn(CC(O)Cn2cc(/C=C3\C(=O)Nc4ccccc43)c3ccccc32)c2ccccc12 (stereo unspecified)
Result string: -55.3

Query string: Kindly indicate its recorded growth. Item: `OCCN1CCCN(CCCN2c3ccccc3Sc3ccc(C(F)(F)F)cc32)CC1`
Result string: 72.3

Query string: Kindly indicate its recorded growth. Item: `O=c1oc2ccc3ccccc3c2cc1-c1ccnc2[nH]c(=S)[nH]c(=O)c12`
Result string: 101

Query string: Kindly indicate its recorded growth. Item: `CC(=O)/C(=C/c1ccc(-c2ccccc2)cc1)C(=O)c1ccccc1`
Result string: 89.5

Query string: Kindly indicate its recorded growth. Item: `CC(C)(C)c1cc(C[P+](c2ccc(Cl)cc2)(c2ccc(Cl)cc2)c2ccc(Cl)cc2)cc(C(C)(C)C)c1O`
Result string: 102

Query string: Kindly indicate its recorded growth. Item: `CC(=O)N(N=O)c1ccc([N+](=O)[O-])cc1Cl`
Result string: 71.7

Query string: Kindly indicate its recorded growth. Item: `S=C(N/N=C/c1cc(Cl)cc(Cl)c1)NC12CC3CC(CC(C3)C1)C2`
Result string: 98

Query string: Kindly indicate its recorded growth. Item: NC(=O)CC(NC(=O)COc1ccc(Cl)cc1Cl)C(=O)O (stereo unspecified)
Result string: 108

Query string: Kindly indicate its recorded growth. Item: `COc1ccc(-c2nc(N)n(C(=S)Nc3ccccc3)n2)cc1`
Result string: 102

Query string: Kindly indicate its recorded growth. Item: `CCc1ccc(C(=Nc2ccc(N(C)C(=O)CN3CCN(C)CC3)cc2)c2c(O)[nH]c3ccc(C(=O)OC)cc23)cc1`
Result string: -87.9

Query string: Kindly indicate its recorded growth. Item: `CCOC1=C(Cl)C(=O)C(OCC)=C(Cl)C1=O`
Result string: 114

Query string: Kindly indicate its recorded growth. Item: `CCCC(=O)Nc1ccccc1C(=O)O`
Result string: 113

Query string: Kindly indicate its recorded growth. Item: `COc1ccc(CN2C(=O)/C(=C\C(=O)c3ccc(OCCN4CCCCC4)cc3)c3ccccc32)cc1`
Result string: 81.5

Query string: Kindly indicate its recorded growth. Item: `COc1ccc(NC(=O)/C=C(C)/C=C/C=C(C)/C=C/C2=C(C)CCCC2(C)C)cc1`
Result string: 96.2

Query string: Kindly indicate its recorded growth. Item: `COc1ccc(-c2nc(SCC(C)C)nc(Nc3ccc(C)cc3)c2C#N)cc1`
Result string: 85.8

Query string: Kindly indicate its recorded growth. Item: N#Cc1ccc(NC2c3ccccc3CC2O)cc1 (stereo unspecified)
Result string: 99.2

Query string: Kindly indicate its recorded growth. Item: `COc1cc(Cn2ccc3c2-c2oncc2CC3)cc(OC)c1`
Result string: 32.9
